Tested on: M14 melanoma
assay: NCI tumour cell line growth inhibition, 48 h
Quick reference for TGI among some compounds

I am curious: what TGI value has been reported for Fc1c[c-]c(-c2ccccn2)c(F)c1.[CH3-].[Pt+2].c1ccc(P(C[PH+](c2ccccc2)c2ccccc2)c2ccccc2)cc1 ?
2.31 µM

Next compound, TGI to be filled in.
I am curious: what TGI value has been reported for COc1ccc2[nH]c(-c3ccccc3)cc2c1 ?
> 100 µM

* * *

Test system: SK-OV-3 ovarian
assay: NCI tumour cell line growth inhibition, 48 h
Quick reference for GI50 among some molecules

Use these answered entries as a reference point.
I am curious: what GI50 value has been reported for C[C@@H]1C/C=C\C(=O)O[C@H](/C=C/C#C/C=C/C(C)(C)[C@@H](O)c2cccc(O)c2Br)[C@@H](C)/C=C/[C@H](C)C[C@H](OC(N)=O)C1 ?
13.3 µM

I am curious: what GI50 value has been reported for COc1ccc(/C=C(/C(=O)n2cnnn2)c2cc(OC)c(OC)c(OC)c2)cc1 ?
5.26 µM

I am curious: what GI50 value has been reported for COc1ccc2[nH]c(-c3ccccc3)cc2c1 ?
> 100 µM

I am curious: what GI50 value has been reported for COc1cc2nnn3c4ncccc4c(N=O)c3c2cc1OC ?
6.96 µM

I am curious: what GI50 value has been reported for CC(C)(C)CC(C)(C)c1ccc(OCCOCC[N+](C)(C)Cc2ccccc2)cc1 ?
1.46 µM

Further cases:
I am curious: what GI50 value has been reported for NC(=O)c1cc(I)ccc1NC(=O)COc1ccccc1 ?
3.21 µM

I am curious: what GI50 value has been reported for C=CC(=O)Nc1cccc(Nc2nc(Nc3ccc(OCCOC(F)F)cc3)ncc2F)c1 ?
0.706 µM

I am curious: what GI50 value has been reported for CCc1cccc(CC)c1/C=C/c1cncc(C(=O)NC)c1 ?
8.75 µM

I am curious: what GI50 value has been reported for Cc1ccc(/C=C2\CNC/C(=C\c3ccc(C)cc3)C2=O)cc1 ?
3.81 µM
